- protocolText: A549 lung cancer cell viability effects, profiling panel, resazurin fluorescence, 24 h, PK04 Diversity Set (AID 1171); further: test concentration not given here
- testParameters: higher = more signal, called active from +8 up or from −8 down
Quick reference: z-score of the listed items.
# respond with the number and nothing more

compound=C[C@]1(C(=O)NC2CC2)c2ccccc2C(=O)N(Cc2ccc(OC(F)(F)F)cc2)[C@H]1c1ccc(CO)cc1 measuredquantity=z-score resultvalue=0.306
compound=Cc1ccc(S[C@]2(C(=O)NC3CC3)CC(=O)N(Cc3ccccc3Cl)[C@@H]2c2ccc(CO)cc2I)cc1 measuredquantity=z-score resultvalue=-0.889
compound="CN1C(=O)C2C(C1=O)C1C=C(c3ccc(CO)cc3)C2C(c2cccs2)N1Cc1cccc(OC(F)(F)F)c1 (stereo unspecified)" measuredquantity=z-score resultvalue=-0.665

Incoming: # query: z-score of entry COc1ccc(C(O)C2C=CC3C(=O)N(C)C(=O)C3N2N2CCCCC2)cc1 (stereo unspecified)
Outgoing: 0.014

Incoming: Please do the same for CC=CC(O)C1C=CC2C(=O)N(C)C(=O)C2N1N1CCCCC1 (stereo unspecified) as well.
Outgoing: -0.232
